This collection of values is drawn from patent US5324747A.

assayedSystem: HSF-PLA2 (Homo sapiens, UniProt P14555)
Construct: extracellular enzyme obtained from human synovial fluid (HSF-PLA2)
Sequence (P14555 21-144): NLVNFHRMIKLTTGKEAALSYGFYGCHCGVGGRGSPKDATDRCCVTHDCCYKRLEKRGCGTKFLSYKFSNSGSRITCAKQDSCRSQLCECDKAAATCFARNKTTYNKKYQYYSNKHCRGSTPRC
testSummary: Assay for Inhibition of HSF-PLA2 In Vitro
assaySetup: read-out: Inhib of HSF-PLA2 IC50
Method: Assay for Inhibition of HSF-PLA2 In Vitro The PLA2 used in this test is the extracellular enzyme obtained from human synovial fluid (HSF-PLA2). The optimal conditions which were developed for the assay of HSF-PLA2 inhibitors are summarized as follows. […] The reaction was initiated by the addition of HSF-PLA2 and duplicate samples of the mixture were incubated in 13×100 mm glass tubes with shaking for 30 minutes at 37° C. […]
I'd appreciate it if you marked entries Fulfilled when IC50 is lower than 0.3 µM and Not fulfilled when it is not.

is_below(IC50, 0.3 µM) for CCCCCCCCCCOc1cc(OCCCCCCCCCC)cc(N(CC(=O)O)CC(=O)O)c1 ?
Fulfilled

Further, for CCCCc1ccc(N(CC(=O)O)CC(=O)O)cc1 [Example 39b] ?
Not fulfilled

Can you handle CCCCCCCCCCCCCCCCCCOc1cc(O)cc(N(CC(=O)O)CC(=O)O)c1 next?
Fulfilled

Also CCCCCCOc1cc(OCCCCCC)cc(N(CC(=O)O)CC(=O)O)c1 ?
Not fulfilled

And CCCCCCCCCCCCCCCCCCOc1cc(N)cc(N(CC(=O)O)CC(=O)O)c1 ?
Not fulfilled

And for CCCCCCCCCCCCCCCCCNC(=O)Oc1cccc(N(CC(=O)O)CC(=O)O)c1 [Example 36c] ?
Not fulfilled

Could you do the same for CCCCCCCCCCCCCCOc1cc(OCCCCCCCCCCCCCC)cc(N(CC(=O)O)CC(=O)O)c1 , please?
Fulfilled

Entry CCCCCCCCCCCCCCCCCCOc1cc(OCCCOc2cccc(OC)c2)cc(N(CC(=O)O)CC(=O)O)c1 [Example 58j] please
Fulfilled

Same read-out for O=C(O)CN(CC(=O)O)c1cc(OCCCc2ccccc2)cc(OCCCc2ccccc2)c1 ?
Not fulfilled

Quick one: CCCCCCCCCCCCCCCCCCOc1cc(OCCCOc2ccc(C(=O)OC)cc2)cc(N(CC(=O)O)CC(=O)O)c1 [Example 58o]
Fulfilled

Further, for CCCCCCCCCCCCCCCCCCOc1cc(C(=O)OC)cc(N(CC(=O)O)CC(=O)O)c1 ?
Fulfilled

Now give it for CCCCOc1cc(OCCCC)cc(N(CC(=O)O)CC(=O)O)c1 too.
Not fulfilled

And then O=C(O)CN(CC(=O)O)c1cc(OCCOc2ccc3ccccc3c2)cc(OCCOc2ccc3ccccc3c2)c1 , what is it?
Not fulfilled

Entry to check: CCCCCCCCCCCCCCCCCCOc1cc(OCCCOc2cccc(N)c2)cc(N(CC(=O)O)CC(=O)O)c1 [Example 58n]
Fulfilled

Note, next up: CCCCCCCCOc1cc(OCCCCCCCC)cc(N(CC(=O)O)CC(=O)O)c1
Not fulfilled

Here is the next compound: CCCCCCCCCCCCCCCc1cccc(OCCCOc2cccc(N(CC(=O)O)CC(=O)O)c2)c1 [Example 36i]
Not fulfilled

Same for CCCCCCCCCCOc1cc(OCCCCCCCCCC)cc(N2CC(=O)OC(=O)C2)c1
Not fulfilled

Let us now turn to CCCCCCCCCCCCCCCCCCOc1cc(OCCCCCCCCCCC(=O)OC)cc(N(CC(=O)O)CC(=O)O)c1 [Example 58d]
Fulfilled

How about this compound: CCCCCCCCCCCCCCCCCCOc1cc(OCCO)cc(N(CC(=O)O)CC(=O)O)c1 [Example 58a]
Fulfilled

Field entry: O=C(O)CN(CC(=O)O)c1cc(OCCCOc2ccccc2-c2ccccc2)cc(OCCCOc2ccccc2-c2ccccc2)c1
Not fulfilled

Also O=C(O)CN(CC(=O)O)c1cc(OCCCOc2cccc(-c3ccccc3)c2)cc(OCCCOc2cccc(-c3ccccc3)c2)c1 , if possible.
Not fulfilled

Same thing, different compound: CCCCCCCCCC(=O)Oc1ccc(N(CC(=O)O)CC(=O)O)cc1OC(=O)CCCCCCCCC
Not fulfilled

Query CCCCCCCCCCCCOc1cc(OCCCCCCCCCCCC)cc(N(CC(=O)O)CC(=O)O)c1 next
Fulfilled

For CCCCCCCCCCCCCCCCCC(=O)Oc1cccc(N(CC(=O)O)CC(=O)O)c1 [Example 36b] then?
Fulfilled

Follow-up item: CCCCCCCCC(O)COc1cc(NCC(=O)O)cc(OCC(O)CCCCCCCC)c1 (centres unmarked)
Not fulfilled

Next record, please: CCCCCCCCCCCCCCCCCCOc1cc(OCCCCCCCCCCC(=O)O)cc(N(CC(=O)O)CC(=O)O)c1 [Example 58e]
Fulfilled

Next up: O=C(O)CN(CC(=O)O)c1cc(OCCCOc2ccc(-c3ccccc3)cc2)cc(OCCCOc2ccc(-c3ccccc3)cc2)c1
Not fulfilled

Further, for CCCCCCCCCCCCCCCCCCOc1cc(OC(C)=O)cc(N(CC(=O)O)CC(=O)O)c1 ?
Fulfilled

Next up: O=C(O)CN(CC(=O)O)c1cc(OCCOc2cccc3ccccc23)cc(OCCOc2cccc3ccccc23)c1
Not fulfilled

What do you get for CCCCCCCCCCCCCCCCCCNC(=O)c1cccc(N(CC(=O)O)CC(=O)O)c1 ?
Not fulfilled
